experimental system: Nrf2-Keap1 complex (Homo sapiens)
Sequence (Q14145 whole entry, one chain of several): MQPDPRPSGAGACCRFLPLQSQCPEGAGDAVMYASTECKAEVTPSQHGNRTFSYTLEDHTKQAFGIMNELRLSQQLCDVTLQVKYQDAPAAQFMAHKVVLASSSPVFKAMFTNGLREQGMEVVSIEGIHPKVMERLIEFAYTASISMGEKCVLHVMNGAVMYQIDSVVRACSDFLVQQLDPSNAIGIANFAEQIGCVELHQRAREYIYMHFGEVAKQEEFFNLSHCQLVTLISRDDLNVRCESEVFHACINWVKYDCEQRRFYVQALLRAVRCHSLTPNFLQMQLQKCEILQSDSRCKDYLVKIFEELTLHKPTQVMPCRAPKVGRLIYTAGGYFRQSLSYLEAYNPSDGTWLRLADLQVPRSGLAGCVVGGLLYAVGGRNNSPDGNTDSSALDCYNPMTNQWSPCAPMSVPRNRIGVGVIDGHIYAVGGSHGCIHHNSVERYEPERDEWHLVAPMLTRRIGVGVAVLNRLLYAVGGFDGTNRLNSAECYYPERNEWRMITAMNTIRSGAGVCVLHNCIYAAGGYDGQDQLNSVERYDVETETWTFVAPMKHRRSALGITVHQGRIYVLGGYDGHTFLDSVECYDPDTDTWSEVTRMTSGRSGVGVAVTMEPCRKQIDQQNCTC
experiment: cell-based
Format: cell-based
Hi, to clarify the labels: 1.0 covers 100 nL (luminescence) from 900 upward, 0.0 covers anything below 900.

{"columns": ["compound", "class assignment"],
 "data": [
  ["O=C(CC(=O)c1ccccc1)c1ccccc1", 1.0],
  ["O=C(O)C(S)C(S)C(=O)O (stereo not shown) [2,3-DIMERCAPTOSUCCINICACID, reference compound]", 1.0],
  ["O=C(NC(=O)c1c(F)cccc1F)Nc1cc(Cl)c(OC(F)(F)C(F)C(F)(F)F)cc1Cl (stereo not shown)", 0.0],
  ["C[C@]12C=CC(=O)C=C1CC[C@@H]1[C@@H]2[C@@H](O)C[C@@]2(C)[C@H]1CC[C@]2(O)C(=O)CO [PREDNISOLONE, reference compound]", 0.0],
  ["CCCSc1ccc2nc(NC(=O)OC)[nH]c2c1 [ALBENDAZOLE, reference compound]", 1.0],
  ["COc1c(O)cc2oc3cc(O)c(CC=C(C)C)c(O)c3c(=O)c2c1CC=C(C)C", 0.0],
  ["Cn1cnc([N+](=O)[O-])c1Sc1[nH]cnc2ncnc1-2 [AZATHIOPRINE, reference compound]", 1.0],
  ["COc1cc2c(c(OC)c1OC)-c1ccc(OC)c(=O)cc1[C@@H](NC(C)=O)CC2 [COLCHICINE, reference compound]", 1.0],
  ["C=C1CC[C@@H]2[C@](C)(CO)[C@H](O)CC[C@@]2(C)[C@@H]1C/C=C1/C(=O)OC[C@H]1O [ANDROGRAPHOLIDE]", 1.0]
]}

Entry source: patent US9200046B2
